Reference source: patent US9193722B2

Target: PKC delta kinase (Homo sapiens, UniProt Q05655)
Sequence (Q05655 whole entry): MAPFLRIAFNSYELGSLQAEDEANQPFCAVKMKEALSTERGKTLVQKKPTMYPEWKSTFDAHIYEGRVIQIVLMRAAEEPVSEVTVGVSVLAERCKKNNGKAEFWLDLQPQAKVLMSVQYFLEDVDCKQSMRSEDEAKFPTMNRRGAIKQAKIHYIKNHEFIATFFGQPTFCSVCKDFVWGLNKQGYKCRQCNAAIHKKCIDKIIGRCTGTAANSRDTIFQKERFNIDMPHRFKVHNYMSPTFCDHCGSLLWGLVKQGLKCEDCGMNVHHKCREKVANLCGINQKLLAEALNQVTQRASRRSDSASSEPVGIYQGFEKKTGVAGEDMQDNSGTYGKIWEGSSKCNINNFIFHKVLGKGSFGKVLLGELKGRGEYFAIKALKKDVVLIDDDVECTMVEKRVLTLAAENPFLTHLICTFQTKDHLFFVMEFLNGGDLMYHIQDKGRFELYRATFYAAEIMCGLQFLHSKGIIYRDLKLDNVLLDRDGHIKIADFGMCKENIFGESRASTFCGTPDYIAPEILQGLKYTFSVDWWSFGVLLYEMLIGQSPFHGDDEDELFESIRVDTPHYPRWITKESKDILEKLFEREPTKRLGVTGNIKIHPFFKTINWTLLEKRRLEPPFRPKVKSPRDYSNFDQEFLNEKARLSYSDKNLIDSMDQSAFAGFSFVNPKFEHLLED
Test: PKC delta kinase inhibition, coupled-enzyme (NADH absorbance) assay, Ki
Format: biochemical
Conditions: 150 μM ATP, 46 nM PKC delta kinase, 30° C.; read-out: Ki PKC delta
Ki values for the compounds below.

Would you please look over these solved cases?
Compound: NCC1CCCN(c2ccc(F)c(-c3n[nH]c4ncccc34)n2)C1 (stereo not drawn) [Compound 327]
Ki: > 1250 nM

Compound: CC(C)C[C@]1(O)CN(c2ccc(C(F)(F)F)c(-c3n[nH]c4ncccc34)n2)CC[C@H]1N [Compound 218]
Ki: < 500 nM

Compound: CC(C)C(N)C1CCCN(c2ccc(F)c(-c3n[nH]c4ncccc34)n2)C1 (stereo not drawn) [Compound 280]
Ki: < 500 nM

Compound: NC1CCN(c2ccc(Cl)c(-c3n[nH]c4ncccc34)n2)CC1 [Compound 110]
Ki: < 2800 nM

Compound: CC1(N)CCCN(c2ccc(C(F)(F)F)c(-c3n[nH]c4ncccc34)n2)C1 (stereo not drawn) [Compound 319]
Ki: > 1250 nM

Let us examine a further case.
Look up Ki for this compound: CC(C)C(C)(O)C1CN(c2ccc(C(F)(F)F)c(-c3n[nH]c4ncccc34)n2)CCN1 (stereo not drawn) [Compound 237]
< 2800 nM

====

Target: PKC theta kinase (Homo sapiens)
Sequence (Q04759 whole entry): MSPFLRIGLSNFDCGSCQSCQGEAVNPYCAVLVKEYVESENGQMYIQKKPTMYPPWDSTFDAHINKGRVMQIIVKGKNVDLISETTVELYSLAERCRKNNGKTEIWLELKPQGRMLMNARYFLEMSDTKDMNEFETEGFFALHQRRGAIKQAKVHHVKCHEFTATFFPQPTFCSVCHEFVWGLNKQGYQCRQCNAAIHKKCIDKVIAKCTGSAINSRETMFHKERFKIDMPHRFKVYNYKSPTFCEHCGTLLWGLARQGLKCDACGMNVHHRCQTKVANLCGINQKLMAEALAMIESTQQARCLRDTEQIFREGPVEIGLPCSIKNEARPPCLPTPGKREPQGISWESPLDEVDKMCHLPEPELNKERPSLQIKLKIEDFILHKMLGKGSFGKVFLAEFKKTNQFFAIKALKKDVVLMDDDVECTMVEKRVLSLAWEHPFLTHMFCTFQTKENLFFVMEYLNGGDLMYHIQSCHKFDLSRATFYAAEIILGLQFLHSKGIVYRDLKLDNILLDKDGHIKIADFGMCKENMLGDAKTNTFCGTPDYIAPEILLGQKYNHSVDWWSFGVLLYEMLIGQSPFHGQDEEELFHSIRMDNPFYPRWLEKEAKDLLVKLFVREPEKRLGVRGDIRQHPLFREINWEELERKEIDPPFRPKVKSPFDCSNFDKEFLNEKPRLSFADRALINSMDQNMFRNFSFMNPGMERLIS
pKi: −log10 of the molar value.
Measurement type: pKi

Would you please look over these solved cases?
Compound: CC(C)[C@@](C)(O)[C@@H]1CN(c2nc(-c3n[nH]c4ncccc34)c(F)cc2F)CCN1 [Compound 445]
pKi: > 9.00
//
Compound: CCC[C@H]1CN(c2ccc(C(F)(F)F)c(-c3n[nH]c4ncccc34)n2)C[C@@H]1N [Compound 341]
pKi: < 6.15
//
Compound: CC(C)=CC1CN(c2ccc(C(F)(F)F)c(-c3n[nH]c4ncccc34)n2)CCN1 (stereo not shown) [Compound 104]
pKi: > 7.30
//
Compound: NCC1CN(c2cc(C(F)(F)F)cc(-c3n[nH]c4ncccc34)n2)C1 [Compound 433]
pKi: > 5.55
//
Compound: CC1(C)CN(c2ccc(C(F)(F)F)c(-c3n[nH]c4ncccc34)n2)CCN1 [Compound 80]
pKi: > 6.30
//
Compound: Cc1cc(-c2n[nH]c3ncccc23)nc(N2CCN[C@@H](CC(C)C)C2)c1 [Compound 56]
pKi: > 6.30
//
Compound: NCC1CCCN(c2cc(C(F)(F)F)cc(-c3n[nH]c4ncccc34)n2)C1 (stereo not shown) [Compound 432]
pKi: > 7.30
//
Compound: NC1CCN(c2cccc(-c3n[nH]c4ncccc34)n2)CC1 [Compound 61]
pKi: > 6.30
//
Compound: CC(C)C[C@H]1CC(F)(c2cccc(-c3n[nH]c4ncccc34)n2)CCN1 (stereo partly shown) [Compound 146]
pKi: > 6.30
//
Compound: Clc1cccc(C2CN(c3cccc(-c4n[nH]c5ncccc45)n3)CCN2)c1 (stereo not shown) [Compound 18]
pKi: > 7.30

Let us examine a further case.
Any idea what pKi came out for CC(F)(F)C(C)(O)C1CN(c2ccc(F)c(-c3n[nH]c4ncccc34)n2)CCN1 (stereo not shown) [Compound 246] on PKC theta kinase (Homo sapiens)?
> 7.30

====

What follows is a record of Ki for PKC theta kinase (Homo sapiens).

Molecule: CCC(C)(O)C1CN(c2ccc(F)c(-c3n[nH]c4ncccc34)n2)CCN1 (centres unmarked) [Compound 161]
Ki: < 50 nM

Look up Ki for this molecule: CC(C)C(N)[C@H]1CCCN(c2ccc(C(F)(F)F)c(-c3n[nH]c4ncccc34)n2)C1 (some centres unmarked)
< 500 nM

Look up Ki for this molecule: CC[C@H]1CN(c2ccc(C(F)(F)F)c(-c3n[nH]c4ncccc34)n2)CCN1
< 500 nM

Look up Ki for this molecule: FC(F)(F)c1ccc(N2CCC(N3CCCCC3)CC2)nc1-c1n[nH]c2ncccc12
> 700 nM

Look up Ki for this molecule: Fc1ccc(N2CCCC(C3CCCN3)C2)nc1-c1n[nH]c2ncccc12 (centres unmarked)
< 500 nM

Look up Ki for this molecule: CC(C)C[C@H]1CN(c2cccc(-c3n[nH]c4ncccc34)n2)CC[C@H]1O
< 50 nM

Look up Ki for this molecule: Fc1ccc(N2CCc3[nH]ncc3C2)nc1-c1n[nH]c2ncccc12
> 700 nM

Look up Ki for this molecule: COC(C)(C)CC1CN(c2cccc(-c3n[nH]c4ncccc34)n2)CCN1 (centres unmarked)
< 50 nM
